target: Beta-1 adrenergic receptor (Homo sapiens, UniProt P08588); assay: Binding affinity (measured using [125I]iodocyanopindolol) against human Beta-1 adrenergic receptor expressed in CHO cells
Sequence (P08588 whole entry): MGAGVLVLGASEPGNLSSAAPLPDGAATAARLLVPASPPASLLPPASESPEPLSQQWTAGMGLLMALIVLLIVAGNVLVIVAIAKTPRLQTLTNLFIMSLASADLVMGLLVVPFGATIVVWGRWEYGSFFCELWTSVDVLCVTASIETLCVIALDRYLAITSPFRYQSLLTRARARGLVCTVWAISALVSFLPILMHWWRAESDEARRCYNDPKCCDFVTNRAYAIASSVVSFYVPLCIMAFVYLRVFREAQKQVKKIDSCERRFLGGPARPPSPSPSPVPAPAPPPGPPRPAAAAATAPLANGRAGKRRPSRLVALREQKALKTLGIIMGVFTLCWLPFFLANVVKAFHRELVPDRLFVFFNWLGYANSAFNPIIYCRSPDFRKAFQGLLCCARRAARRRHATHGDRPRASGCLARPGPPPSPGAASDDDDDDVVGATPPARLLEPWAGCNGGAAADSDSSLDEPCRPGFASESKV
Record form. Attribute: IC50. Fill in for each entry.

[ask] // fetch Beta-1 adrenergic receptor (Homo sapiens, UniProt P08588) IC50 for O=S(=O)(Nc1ccc(CCNC[C@H](O)c2cccnc2)cc1)c1ccc(-c2nc(-c3ccc4ccccc4c3)cs2)cc1
[reply] 13 µM

[ask] // fetch Beta-1 adrenergic receptor (Homo sapiens, UniProt P08588) IC50 for CC(=O)NCCCCCc1csc(-c2ccc(S(=O)(=O)Nc3ccc(CCNC[C@H](O)c4cccnc4)cc3)cc2)n1
[reply] 50 µM

[ask] // fetch Beta-1 adrenergic receptor (Homo sapiens, UniProt P08588) IC50 for O=S(=O)(Nc1ccc(CCNC[C@H](O)c2cccnc2)cc1)c1ccc(-c2nc(-c3c[nH]c4ccccc34)cs2)cc1
[reply] 30 µM

[ask] // fetch Beta-1 adrenergic receptor (Homo sapiens, UniProt P08588) IC50 for O=S(=O)(Nc1ccc(CCNC[C@H](O)c2cccnc2)cc1)c1ccc(-c2nc(-c3cnc4ccccc4c3)cs2)cc1
[reply] 19 µM

[ask] // fetch Beta-1 adrenergic receptor (Homo sapiens, UniProt P08588) IC50 for O=S(=O)(Nc1ccc(CCNC[C@H](O)c2cccnc2)cc1)c1ccc(-c2nc(CCc3ccccc3)cs2)cc1
[reply] 9 µM

[ask] // fetch Beta-1 adrenergic receptor (Homo sapiens, UniProt P08588) IC50 for O=S(=O)(Nc1ccc(CCNC[C@H](O)c2cccnc2)cc1)c1ccc(Cc2nc(Cc3ccc4ccccc4c3)cs2)cc1
[reply] 2.5 µM

[ask] // fetch Beta-1 adrenergic receptor (Homo sapiens, UniProt P08588) IC50 for O=S(=O)(Nc1ccc(CCNC[C@H](O)c2cccnc2)cc1)c1ccc(-c2nc(-c3cccnc3)cs2)cc1
[reply] 7 µM

[ask] // fetch Beta-1 adrenergic receptor (Homo sapiens, UniProt P08588) IC50 for O=S(=O)(Nc1ccc(CCNC[C@H](O)c2cccnc2)cc1)c1ccc(-c2nc(-c3cc4ccccc4o3)cs2)cc1
[reply] 90 µM

====

target: Beta-2 adrenergic receptor (Homo sapiens, UniProt P07550); experiment: Binding affinity against human Beta-2 adrenergic receptor expressed in CHO cells using [125I]iodocyanopindolol
Sequence (P07550 whole entry): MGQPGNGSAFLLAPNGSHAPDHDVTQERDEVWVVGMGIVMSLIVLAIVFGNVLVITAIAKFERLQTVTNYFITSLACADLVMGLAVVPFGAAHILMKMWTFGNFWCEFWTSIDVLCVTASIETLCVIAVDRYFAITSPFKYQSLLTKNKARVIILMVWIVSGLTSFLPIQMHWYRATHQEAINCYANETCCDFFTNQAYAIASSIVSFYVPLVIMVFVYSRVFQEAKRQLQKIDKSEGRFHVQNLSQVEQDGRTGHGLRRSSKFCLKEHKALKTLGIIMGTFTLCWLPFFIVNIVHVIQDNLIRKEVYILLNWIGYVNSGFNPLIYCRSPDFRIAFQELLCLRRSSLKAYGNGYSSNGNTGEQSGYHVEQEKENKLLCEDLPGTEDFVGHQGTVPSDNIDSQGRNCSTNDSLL
Record form. Attribute: IC50. Fill in for each entry.
State just the number; it will be interpreted in µM.

[ask] // returns reported IC50 for input O=S(=O)(Nc1ccc(CCNC[C@H](O)c2cccnc2)cc1)c1ccc(-c2nc(-c3ccc4ncccc4c3)cs2)cc1
[reply] 8

[ask] // returns reported IC50 for input O=S(=O)(Nc1ccc(CCNC[C@H](O)c2cccnc2)cc1)c1ccc(-c2nc(Cc3ccc(F)cc3)cs2)cc1
[reply] 2.5

[ask] // returns reported IC50 for input CC(=O)Nc1ccc(-c2csc(-c3ccc(S(=O)(=O)Nc4ccc(CCNC[C@H](O)c5cccnc5)cc4)cc3)n2)cc1
[reply] 2.1

[ask] // returns reported IC50 for input O=S(=O)(Nc1ccc(CCNC[C@H](O)c2cccnc2)cc1)c1ccc(-c2nc(-c3cc4ccccc4s3)cs2)cc1
[reply] 93

[ask] // returns reported IC50 for input O=S(=O)(Nc1ccc(CCNC[C@H](O)c2cccnc2)cc1)c1ccc(-c2nc(-c3c[nH]c4ccccc34)cs2)cc1
[reply] 50

[ask] // returns reported IC50 for input O=S(=O)(Nc1ccc(CCNC[C@H](O)c2cccnc2)cc1)c1ccc(-c2nc(-c3cc4ccccc4o3)cs2)cc1
[reply] 49

[ask] // returns reported IC50 for input CCCCCCc1ccc(-c2csc(-c3ccc(S(=O)(=O)Nc4ccc(CCNC[C@H](O)c5cccnc5)cc4)cc3)n2)cc1
[reply] 90

[ask] // returns reported IC50 for input O=S(=O)(Nc1ccc(CCNC[C@H](O)c2cccnc2)cc1)c1ccc(-c2nc(-c3ccccn3)cs2)cc1
[reply] 4

[ask] // returns reported IC50 for input O=S(=O)(Nc1ccc(CCNC[C@H](O)c2cccnc2)cc1)c1ccc(-c2nc(-c3ccc(F)cc3)cs2)cc1
[reply] 1.9

[ask] // returns reported IC50 for input O=S(=O)(Nc1ccc(CCNC[C@H](O)c2cccnc2)cc1)c1ccc(-c2nc(-c3cnc4ccccc4c3)cs2)cc1
[reply] 47

[ask] // returns reported IC50 for input O=S(=O)(Nc1ccc(CCNC[C@H](O)c2cccnc2)cc1)c1ccc(-c2nc(-c3ccc(O)cc3)cs2)cc1
[reply] 5.7

[ask] // returns reported IC50 for input CC(=O)NCCCCCc1csc(-c2ccc(S(=O)(=O)Nc3ccc(CCNC[C@H](O)c4cccnc4)cc3)cc2)n1
[reply] 16

[ask] // returns reported IC50 for input O=S(=O)(Nc1ccc(CCNC[C@H](O)c2cccnc2)cc1)c1ccc(-c2nc(-c3cccnc3)cs2)cc1
[reply] 3

[ask] // returns reported IC50 for input CCCCCCCCc1csc(Cc2ccc(S(=O)(=O)Nc3ccc(CCNC[C@H](O)c4cccnc4)cc3)cc2)n1
[reply] 1

====

Record form. Attribute: log10 IC50. Fill in for each entry.
target: Beta-1 adrenergic receptor (Homo sapiens); experiment: Binding affinity (measured using [125I]iodocyanopindolol) against human Beta-1 adrenergic receptor expressed in CHO cells
Hi team, quick reminder: these entries are log10 of IC50 (nM).

[ask] // fetch Beta-1 adrenergic receptor (Homo sapiens) log10 IC50 for O=S(=O)(Nc1ccc(CCNC[C@H](O)c2cccnc2)cc1)c1ccc(-c2nc(Cc3ccc4ccccc4c3)cs2)cc1
[reply] 3.52

[ask] // fetch Beta-1 adrenergic receptor (Homo sapiens) log10 IC50 for CCCCCCCCc1csc(-c2ccc(S(=O)(=O)Nc3ccc(CCNC[C@H](O)c4cccnc4)cc3)cc2)n1
[reply] 3.57

[ask] // fetch Beta-1 adrenergic receptor (Homo sapiens) log10 IC50 for CCCCCCCCc1csc(Cc2ccc(S(=O)(=O)Nc3ccc(CCNC[C@H](O)c4cccnc4)cc3)cc2)n1
[reply] 2.93

[ask] // fetch Beta-1 adrenergic receptor (Homo sapiens) log10 IC50 for CC(=O)Nc1ccc(-c2csc(-c3ccc(S(=O)(=O)Nc4ccc(CCNC[C@H](O)c5cccnc5)cc4)cc3)n2)cc1
[reply] 2.98

[ask] // fetch Beta-1 adrenergic receptor (Homo sapiens) log10 IC50 for O=S(=O)(Nc1ccc(CCNC[C@H](O)c2cccnc2)cc1)c1ccc(-c2nc(-c3ccc(F)cc3)cs2)cc1
[reply] 3.18

[ask] // fetch Beta-1 adrenergic receptor (Homo sapiens) log10 IC50 for O=S(=O)(Nc1ccc(CCNC[C@H](O)c2cccnc2)cc1)c1ccc(-c2nc(-c3cc4ccccc4s3)cs2)cc1
[reply] 5.00

====

biological target: Beta-1 adrenergic receptor (Homo sapiens, UniProt P08588); assay: Binding affinity (measured using [125I]iodocyanopindolol) against human Beta-1 adrenergic receptor expressed in CHO cells
pIC50: −log10 of the molar value.
# label = class 1 if pIC50 >= 5 else class 0

[ask] Could you verify whether the entry O=S(=O)(Nc1ccc(CCNC[C@H](O)c2cccnc2)cc1)c1ccc(-c2nc(-c3ccc(O)cc3)cs2)cc1 shows pIC50 of no less than 5?
[reply] class 1

[ask] Could you verify whether the entry CCCCCCc1ccc(-c2csc(-c3ccc(S(=O)(=O)Nc4ccc(CCNC[C@H](O)c5cccnc5)cc4)cc3)n2)cc1 shows pIC50 of no less than 5?
[reply] class 0

[ask] Could you verify whether the entry CCCCCCc1csc(-c2ccc(S(=O)(=O)Nc3ccc(CCNC[C@H](O)c4cccnc4)cc3)cc2)n1 shows pIC50 of no less than 5?
[reply] class 0

[ask] Could you verify whether the entry CC(C)(C)c1ccc(-c2csc(-c3ccc(S(=O)(=O)Nc4ccc(CCNC[C@H](O)c5cccnc5)cc4)cc3)n2)cc1 shows pIC50 of no less than 5?
[reply] class 1

[ask] Could you verify whether the entry O=S(=O)(Nc1ccc(CCNC[C@H](O)c2cccnc2)cc1)c1ccc(-c2nc(-c3ccccn3)cs2)cc1 shows pIC50 of no less than 5?
[reply] class 1

[ask] Could you verify whether the entry O=S(=O)(Nc1ccc(CCNC[C@H](O)c2cccnc2)cc1)c1ccc(-c2nc(CCCC3CCCC3)cs2)cc1 shows pIC50 of no less than 5?
[reply] class 1

[ask] Could you verify whether the entry O=S(=O)(Nc1ccc(CCNC[C@H](O)c2cccnc2)cc1)c1ccc(-c2nc(-c3ccc4ncccc4c3)cs2)cc1 shows pIC50 of no less than 5?
[reply] class 1

[ask] Could you verify whether the entry O=S(=O)(Nc1ccc(CCNC[C@H](O)c2cccnc2)cc1)c1ccc(-c2nc(Cc3ccc(F)cc3)cs2)cc1 shows pIC50 of no less than 5?
[reply] class 1

====

target: Beta-3 adrenergic receptor (Homo sapiens); assay: Percent increase in adenylyl cyclase activation in CHO cells expressing human beta-3 adrenergic receptor; assay type: functional, cell-based
Sequence (P13945 whole entry, looked up): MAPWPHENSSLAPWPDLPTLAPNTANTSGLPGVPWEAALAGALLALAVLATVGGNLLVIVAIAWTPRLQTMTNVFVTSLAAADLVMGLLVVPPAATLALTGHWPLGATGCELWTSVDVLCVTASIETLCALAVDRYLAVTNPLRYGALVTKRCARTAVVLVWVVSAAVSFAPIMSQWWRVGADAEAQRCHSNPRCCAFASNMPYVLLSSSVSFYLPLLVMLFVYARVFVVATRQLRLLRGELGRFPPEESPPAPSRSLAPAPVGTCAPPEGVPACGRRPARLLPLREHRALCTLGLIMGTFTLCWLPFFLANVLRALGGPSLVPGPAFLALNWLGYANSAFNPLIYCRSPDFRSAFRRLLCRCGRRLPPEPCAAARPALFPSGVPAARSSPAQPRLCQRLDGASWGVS
Rule: Max stimulation below 80% gives Fulfilled, anything at or above gives Not fulfilled.

[ask] For this compound, is Max stimulation lower than 80%? O=S(=O)(Nc1ccc(CCNC[C@H](O)c2cccnc2)cc1)c1ccc(-c2nc(-c3cc4ccccc4o3)cs2)cc1
[reply] Not fulfilled

[ask] For this compound, is Max stimulation lower than 80%? CCCCCCc1ccc(-c2csc(-c3ccc(S(=O)(=O)Nc4ccc(CCNC[C@H](O)c5cccnc5)cc4)cc3)n2)cc1
[reply] Not fulfilled

[ask] For this compound, is Max stimulation lower than 80%? O=S(=O)(Nc1ccc(CCNC[C@H](O)c2cccnc2)cc1)c1ccc(-c2nc(-c3ccc4ncccc4c3)cs2)cc1
[reply] Not fulfilled

[ask] For this compound, is Max stimulation lower than 80%? CCCCCCc1csc(-c2ccc(S(=O)(=O)Nc3ccc(CCNC[C@H](O)c4cccnc4)cc3)cc2)n1
[reply] Fulfilled

[ask] For this compound, is Max stimulation lower than 80%? O=S(=O)(Nc1ccc(CCNC[C@H](O)c2cccnc2)cc1)c1ccc(-c2nc(-c3ccccn3)cs2)cc1
[reply] Not fulfilled

[ask] For this compound, is Max stimulation lower than 80%? O=S(=O)(Nc1ccc(CCNC[C@H](O)c2cccnc2)cc1)c1ccc(Cc2nc(Cc3ccc4ccccc4c3)cs2)cc1
[reply] Not fulfilled

[ask] For this compound, is Max stimulation lower than 80%? O=S(=O)(Nc1ccc(CCNC[C@H](O)c2cccnc2)cc1)c1ccc(-c2nc(CCCC3CCCC3)cs2)cc1
[reply] Not fulfilled

[ask] For this compound, is Max stimulation lower than 80%? O=S(=O)(Nc1ccc(CCNC[C@H](O)c2cccnc2)cc1)c1ccc(-c2nc(-c3ccc(F)c(F)c3)cs2)cc1
[reply] Not fulfilled

[ask] For this compound, is Max stimulation lower than 80%? O=S(=O)(Nc1ccc(CCNC[C@H](O)c2cccnc2)cc1)c1ccc(-c2nc(CCc3ccccc3)cs2)cc1
[reply] Fulfilled

[ask] For this compound, is Max stimulation lower than 80%? O=S(=O)(Nc1ccc(CCNC[C@H](O)c2cccnc2)cc1)c1ccc(-c2nc(-c3c[nH]c4ccccc34)cs2)cc1
[reply] Not fulfilled

[ask] For this compound, is Max stimulation lower than 80%? O=S(=O)(Nc1ccc(CCNC[C@H](O)c2cccnc2)cc1)c1ccc(-c2nc(-c3cccnc3)cs2)cc1
[reply] Fulfilled

[ask] For this compound, is Max stimulation lower than 80%? CC(C)(C)c1ccc(-c2csc(-c3ccc(S(=O)(=O)Nc4ccc(CCNC[C@H](O)c5cccnc5)cc4)cc3)n2)cc1
[reply] Not fulfilled

Origin of measurements: ChEMBL document CHEMBL1133294
